- Test Target: Nuclear receptor subfamily 1 group I member 3 (Homo sapiens)
- Run Description: qHTS assay to identify small molecule antagonists of the constitutive androstane receptor (CAR) signaling pathway (AID 1224838);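 also: HepG2 cells stably expressing hCAR with CYP2B6 luciferase reporter stimulated by CITCO; nearly all actives have a fitted effect of over 40% in size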
- Protocol Conditions: HepG2-CYP2B6-hCAR luciferase, CITCO-stimulated, 24 h; series mostly up to 92.4 µM
Results filed as inconclusive are left out. Activity calls are given as the source filed them. Calls follow the shape of the dose curve; as a rule, active = well fitted inhibition curve with a large enough effect in the repeat runs; inconclusive = weak or mixed curves, or effect the other way; inactive = no such curve, though single readings can be large or run the other way.

Molecule: ClC(Cl)=C(c1ccc(Cl)cc1)c1ccc(Cl)cc1
outcome: inactive

Molecule: ClC1=C(Cl)C2(Cl)C3C(Cl)C=CC3C1(Cl)C2(Cl)Cl (stereo not drawn)
outcome: inactive

Molecule: C=CCC1=C(C)C(OC(=O)C2C(C=C(C)C)C2(C)C)CC1=O (stereo not drawn)
outcome: inactive

Source listed as PubChem BioAssay (Tox21).
